measuredTarget: FXR (Homo sapiens (Human), UniProt Q96RI1)
Sequence (Q96RI1 262-486): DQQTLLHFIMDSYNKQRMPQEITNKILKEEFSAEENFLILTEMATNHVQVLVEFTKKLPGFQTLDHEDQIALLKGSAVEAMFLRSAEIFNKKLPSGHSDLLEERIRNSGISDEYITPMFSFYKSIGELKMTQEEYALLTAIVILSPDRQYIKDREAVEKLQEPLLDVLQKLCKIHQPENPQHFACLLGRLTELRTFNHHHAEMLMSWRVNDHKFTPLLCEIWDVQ
assayProcedure: FXR EC50 (FXR agonist potency reported with each Example)
Type: cell-based
molecules and their reported pEC50
When answering, recall that pEC50 equals minus log10 of the concentration in mol/L, and write that number alone.

Would you please look over these solved cases?
Exercise: Need pEC50 of O=C(N(CC12CCC(c3nc(C4CC4)no3)(CC1)CC2)c1cccc(-c2cnc(C3CCOCC3)o2)c1)C12CC(F)(C1)C2 , thanks.
Key: 6.60

Exercise: Same for CC1(c2nc(-c3cccc(N(CC45CCC(c6noc(C7(C)COC7)n6)(CC4)CC5)C(=O)C45CC(F)(C4)C5)c3)no2)CC1
Key: 7.08

Exercise: Same for CC(C)(C)c1nc(-c2cccc(N(CC34CCC(c5nc(C6CC6)no5)(CC3)CC4)C(=O)C34CC(F)(C3)C4)c2)no1
Key: 7.74

Exercise: Same for O=C(N(CC12CCC(c3nc(C4CC4)no3)(CC1)CC2)c1cccc(-c2noc(C34CC(F)(C3)C4)n2)c1)C12CC(F)(C1)C2
Key: 5.98

Exercise: Same for CCc1noc(-c2cccc(N(CC34CCC(c5nc(C6CC6)no5)(CC3)CC4)C(=O)C34CC(F)(C3)C4)c2)n1
Key: 6.87

***
Exercise: Need pEC50 of O=C(N(CC12CCC(c3nc(CC4CC4)no3)(CC1)CC2)c1cccc(-c2nc(C3CC3)no2)c1)C12CC(F)(C1)C2 , thanks.
Key: 6.96
